Please respond with reported Selectivity ratio for every item in the list.
test: Selectivity ratio of inhibition for PDE3A (M1 to Q1141 residues) (unknown origin) by RF-MS assay to inhibition for PDE3B (M1 to E1112 residues) (unknown origin) by RF-MS assay
Give bare numbers.

compound="CCNC(=O)N1CCCCC(NC(=O)c2cc(O)cc(NC(=O)c3cc(C)cc(C)c3OC)c2)C1 (configuration not stated)" readout_number=1
compound=COc1ccc2c(OC)cc(C(=O)Nc3cc(B(O)O)cc(C(=O)N4CCCC4)c3)nc2c1 readout_number=46
compound=CNC(=O)[C@H](NC(=O)c1cc(NC(=O)c2cc(Cl)cc3c2OCC(=O)N3)cc(B(O)O)c1)C1CCCCC1 readout_number=7
compound=COc1ccc2c(OC)cc(C(=O)Nc3cc(B(O)O)cc(C(=O)N(C)Cc4ccccc4)c3)nc2c1 readout_number=62
compound=CNC(=O)[C@@H](C)NC(=O)c1cc(NC(=O)c2cc(OC)c3ccc(OC)cc3n2)cc(B(O)O)c1 readout_number=26

// each compound listed below needs its Selectivity ratio
1. COc1ccc2c(OC)cc(C(=O)Nc3cc(B(O)O)cc(C(=O)NC(C)C)c3)nc2c1
2. CNC(=O)[C@@H](NC(=O)c1cc(NC(=O)c2ccc3cccnc3n2)cc(B(O)O)c1)C1CCCCC1
3. CNC(=O)[C@@H](NC(=O)c1cc(NC(=O)c2nccc3ccccc23)cc(B(O)O)c1)C1CCCCC1
4. CNC(=O)[C@@H](NC(=O)c1cc(NC(=O)c2ccc3ccc(OC)cc3c2)cc(B(O)O)c1)C1CCCCC1
5. COC[C@H](NC(=O)c1cc(NC(=O)c2cc(OC)c3ccc(OC)cc3n2)cc(B(O)O)c1)C(C)C
6. CNC(=O)[C@@H](NC(=O)c1cc(NC(=O)c2cc(OC)c3ccccc3n2)cc(B(O)O)c1)C1CCCCC1

**Result**
[42, 1, 2.7, 1.9, 50, 2.3]

// each compound listed below needs its Selectivity ratio
1. CNC(=O)[C@@H](NC(=O)c1cc(NC(=O)c2cc(C)c3c(=O)[nH]c(=O)[nH]c3n2)cc(B(O)O)c1)C1CCCCC1
2. COc1ccc2c(OC)cc(C(=O)Nc3cc(B(O)O)cc(C(=O)NCC(C)C)c3)nc2c1
3. COc1ccc2c(OC)cc(C(=O)Nc3cc(B(O)O)cc(C(=O)N[C@H](C(N)=O)C(C)C)c3)nc2c1
4. CNC(=O)[C@H](NC(=O)c1cc(NC(=O)c2cc(OC)c3ccc(OC)cc3n2)cc(B(O)O)c1)C1CCCCC1
5. CNC(=O)[C@@H](NC(=O)c1cc(NC(=O)c2cc3ccccc3cn2)cc(B(O)O)c1)C1CCCCC1
6. CCNC(=O)N1CCCCC(NC(=O)c2cc(NC(=O)c3cc(C)cc(C)c3OC)cc(B(O)O)c2)C1 (configuration not stated)

**Result**
1: 1.2; 2: 56; 3: 30; 4: 78; 5: 2; 6: 3.8

// each compound listed below needs its Selectivity ratio
1. CNC(=O)[C@@H](NC(=O)c1cc(NC(=O)c2ccc3ccccc3n2)cc(B(O)O)c1)C1CCCCC1
2. CNC(=O)[C@@H](NC(=O)c1cc(NC(=O)c2ccc3cc(OC)ccc3c2)cc(B(O)O)c1)C1CCCCC1
3. CNC(=O)[C@@H](NC(=O)c1cc(NC(=O)c2ccc3ccncc3n2)cc(B(O)O)c1)C1CCCCC1
4. COc1ccc2c(OC)cc(C(=O)Nc3cc(B(O)O)cc(C(=O)NCC(C)OC)c3)nc2c1 (configuration not stated)
5. COc1ccc2c(OC)cc(C(=O)Nc3cccc(B(O)O)c3)nc2c1
6. COc1ccc2c(OC)cc(C(=O)Nc3cc(B(O)O)cc(C(N)=O)c3)nc2c1
7. CNC(=O)[C@@H](NC(=O)c1cc(NC(=O)c2cc(OC)c3ccc(OC)cc3n2)cc(B(O)O)c1)C1CCCCC1

**Result**
0.5
1.8
0.7
25
4.2
45
26

// each compound listed below needs its Selectivity ratio
1. CNC(=O)[C@H](NC(=O)c1cc(NC(=O)c2nc(C)ncc2OC)cc(B(O)O)c1)C1CCCCC1
2. CNC(=O)[C@@H](NC(=O)c1cc(NC(=O)c2cc(C)cc(C)c2OC)cc(B(O)O)c1)C1CCCCC1

**Result**
0.8
6.3

###

experiment: Selectivity ratio of inhibition for PDE3A (M1 to Q1141 residues) (unknown origin) by RF-MS assay to inhibition for PDE3B (M1 to E1112 residues) (unknown origin) by RF-MS assay
measured-quantity: Selectivity ratio
One number for each entry.

Illustrative cases are given below, each with its answer.
chemical_structure=COc1ccc2c(OC)cc(C(=O)Nc3cc(B(O)O)cc(C(=O)N(C)C)c3)nc2c1 readout_number=63
chemical_structure=CNC(=O)[C@@H](NC(=O)c1cc(NC(=O)c2ccc3cc(OC)ccc3n2)cc(B(O)O)c1)C1CCCCC1 readout_number=1
chemical_structure=CNC(=O)[C@H](NC(=O)c1cc(NC(=O)c2cc(OC)ccn2)cc(B(O)O)c1)C1CCCCC1 readout_number=1.6

Now examine the next entry.
**Query** Look up Selectivity ratio for this molecule: COc1ccc2c(OC)cc(C(=O)Nc3cc(B(O)O)cc(C(=O)O)c3)nc2c1
**Result** 5

###

target: cGMP-inhibited 3',5'-cyclic phosphodiesterase 3B (Homo sapiens, UniProt Q13370)
Sequence (Q13370 whole entry): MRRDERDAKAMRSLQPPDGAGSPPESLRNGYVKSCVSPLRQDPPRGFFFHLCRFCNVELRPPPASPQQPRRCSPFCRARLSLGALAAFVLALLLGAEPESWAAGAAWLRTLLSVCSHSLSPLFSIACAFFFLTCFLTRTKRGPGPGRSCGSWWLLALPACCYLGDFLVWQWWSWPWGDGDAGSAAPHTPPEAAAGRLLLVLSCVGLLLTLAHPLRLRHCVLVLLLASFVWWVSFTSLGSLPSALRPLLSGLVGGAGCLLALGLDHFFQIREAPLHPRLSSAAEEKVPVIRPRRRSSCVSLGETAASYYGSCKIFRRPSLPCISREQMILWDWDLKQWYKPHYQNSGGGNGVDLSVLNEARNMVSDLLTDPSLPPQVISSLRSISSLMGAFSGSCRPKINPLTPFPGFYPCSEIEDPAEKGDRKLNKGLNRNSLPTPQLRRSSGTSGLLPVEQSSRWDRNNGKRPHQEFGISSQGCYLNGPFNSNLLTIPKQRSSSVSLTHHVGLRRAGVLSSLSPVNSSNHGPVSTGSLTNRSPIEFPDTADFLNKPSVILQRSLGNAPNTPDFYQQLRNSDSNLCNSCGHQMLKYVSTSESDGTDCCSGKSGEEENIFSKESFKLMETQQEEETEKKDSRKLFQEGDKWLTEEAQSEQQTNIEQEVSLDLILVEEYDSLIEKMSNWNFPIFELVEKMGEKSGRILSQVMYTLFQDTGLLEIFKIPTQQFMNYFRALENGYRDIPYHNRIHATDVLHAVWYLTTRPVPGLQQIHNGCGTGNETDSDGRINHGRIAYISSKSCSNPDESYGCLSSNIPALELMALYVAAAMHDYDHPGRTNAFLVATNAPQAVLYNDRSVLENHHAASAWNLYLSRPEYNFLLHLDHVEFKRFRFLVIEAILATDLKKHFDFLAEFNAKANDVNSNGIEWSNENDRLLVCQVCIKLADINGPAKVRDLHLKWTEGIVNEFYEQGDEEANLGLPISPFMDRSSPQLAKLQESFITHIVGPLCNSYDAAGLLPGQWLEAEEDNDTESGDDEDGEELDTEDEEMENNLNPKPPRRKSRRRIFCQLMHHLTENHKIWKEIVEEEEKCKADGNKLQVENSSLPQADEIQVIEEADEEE
measured-quantity: log10 IC50 (log10 of the value in nM)
Parameter value (number): base-10 log of IC50 in nM.

Illustrative cases are given below, each with its answer.
molecule=COC(=O)c1cc(NC(=O)c2cc(OC)c3ccc(OC)cc3n2)cc(B(O)O)c1 readout_number=3.30
molecule=CNC(=O)[C@H](NC(=O)c1cc(NC(=O)c2nc(C)ncc2OC)cc(B(O)O)c1)C1CCCCC1 readout_number=4.50
molecule=CNC(=O)[C@@H](NC(=O)c1cc(NC(=O)c2ccc3ccccc3c2)cc(B(O)O)c1)C1CCCCC1 readout_number=3.70
molecule=COc1ccc2c(OC)cc(C(=O)Nc3cc(B(O)O)cc(C(N)=O)c3)nc2c1 readout_number=3.30
molecule=CNC(=O)[C@@H](NC(=O)c1cc(NC(=O)c2ccc3cc(OC)ccc3c2)cc(B(O)O)c1)C1CCCCC1 readout_number=4.50

// each molecule listed below needs its log10 IC50
1. CNC(=O)[C@H](NC(=O)c1cc(NC(=O)C(C)Oc2c(C)cccc2C)cc(B(O)O)c1)C1CCCCC1 (stereo partly drawn)
2. COc1ccc2c(OC)cc(C(=O)Nc3cccc(B(O)O)c3)nc2c1
3. CNC(=O)[C@H](NC(=O)c1cc(NC(=O)c2cc(OC)ccn2)cc(B(O)O)c1)C1CCCCC1
4. COc1ccc2c(OC)cc(C(=O)Nc3cc(B(O)O)cc(C(=O)NC(C)C)c3)nc2c1
5. COc1ccc2c(OC)cc(C(=O)Nc3cc(B(O)O)cc(C(=O)N4CC(OC5CC5)C4)c3)nc2c1
6. CNC(=O)[C@@H](NC(=O)c1cc(NC(=O)c2ccc3ccc(OC)cc3c2)cc(B(O)O)c1)C1CCCCC1

**Result**
4.40
4.00
4.70
3.00
2.30
4.00

###

assay: Selectivity ratio of inhibition for PDE3A (M1 to Q1141 residues) (unknown origin) by IMAP assay to inhibition for PDE3B (M1 to E1112 residues) (unknown origin) by IMAP assay
measured-quantity: Selectivity ratio
Answers are plain numbers.

Illustrative cases are given below, each with its answer.
compound=CNC(=O)[C@@H](NC(=O)c1cc(NC(=O)c2cc(C)c3c(=O)[nH]c(=O)[nH]c3n2)cc(B(O)O)c1)C1CCCCC1 measured_quantity="Selectivity ratio" readout_number=0.8
compound=CNC(=O)[C@@H](NC(=O)c1cc(NC(=O)c2ccc3cccnc3n2)cc(B(O)O)c1)C1CCCCC1 measured_quantity="Selectivity ratio" readout_number=0.7
compound=COc1ccc2c(OC)cc(C(=O)Nc3cc(B(O)O)cc(C(=O)N[C@H](C(N)=O)C(C)C)c3)nc2c1 measured_quantity="Selectivity ratio" readout_number=15
compound=CNC(=O)[C@H](NC(=O)c1cc(NC(=O)c2cc(Cl)cc3c2OCC(=O)N3)cc(B(O)O)c1)C1CCCCC1 measured_quantity="Selectivity ratio" readout_number=3.3

// each compound listed below needs its Selectivity ratio
1. CNC(=O)[C@H](NC(=O)c1cc(NC(=O)c2cc(C)cc(C)c2OC)cc(B(O)O)c1)C1CCCCC1
2. CCNC(=O)N1CCCCC(NC(=O)c2cc(O)cc(NC(=O)c3cc(C)cc(C)c3OC)c2)C1 (configuration not stated)
3. CNC(=O)[C@@H](NC(=O)c1cc(NC(=O)c2ccc3ccccc3c2)cc(B(O)O)c1)C1CCCCC1
4. COc1ccc2c(OC)cc(C(=O)Nc3cccc(B(O)O)c3)nc2c1
5. COc1ccc2c(OC)cc(C(=O)Nc3cc(B(O)O)cc(C(=O)N4CC(OC5CC5)C4)c3)nc2c1
6. CNC(=O)[C@@H](NC(=O)c1cc(NC(=O)c2ccc3ccc(OC)cc3c2)cc(B(O)O)c1)C1CCCCC1
7. CNC(=O)[C@@H](NC(=O)c1cc(NC(=O)c2ccc3ccccc3n2)cc(B(O)O)c1)C1CCCCC1
8. CNC(=O)[C@@H](NC(=O)c1cc(NC(=O)c2cc(F)cc3nccnc23)cc(B(O)O)c1)C1CCCCC1

**Result**
2.6
0.8
0.3
1.4
17
1
0.5
0.7
